- PROCEDURE_SUMMARY: Adsorption of liquid ethanol or acetic acid on saccharide powder (Example C-1)
- Format: physicochemical
- RUN_PARAMETERS: ethanol adsorbed on 1 g of saccharide, until mixture did not keep a powder form
VALUE_KIND: Amount of Adsorbed Ethanol (g)
Give bare numbers, in g.

Look over these answered cases.
Task item: Which Amount of Adsorbed Ethanol is listed for OC[C@H]1O[C@H](O[C@H]2O[C@H](CO)[C@@H](O)[C@H](O)[C@H]2O)[C@H](O)[C@@H](O)[C@@H]1O [Anhydrous trehalose, reference compound] ?
Reply: 0.25

Task item: What does the data say about its Amount of Adsorbed Ethanol? Entry: OCC1OC2OCC3O[C@H](O[C@H]4C(O)C(CO)OC(OCC5O[C@H](O[C@@H](C1O)C2O)C(O)C(O)[C@@H]5O)C4O)C(O)C(O)[C@@H]3O (some centres unmarked) [CTS crystalline pentahydrate]
Reply: 0.32

Task item: Looking for the measured Amount of Adsorbed Ethanol of OCC1OC2OCC3O[C@H](O[C@H]4C(O)C(CO)OC(OCC5O[C@H](O[C@@H](C1O)C2O)C(O)C(O)[C@@H]5O)C4O)C(O)C(O)[C@@H]3O (some centres unmarked) [CTS crystalline monohydrate] , can you help?
Reply: 0.45

Task item: What value of Amount of Adsorbed Ethanol has been recorded for this entry: OCC1OC2OCC3O[C@H](O[C@H]4C(O)C(CO)OC(OCC5O[C@H](O[C@@H](C1O)C2O)C(O)C(O)[C@@H]5O)C4O)C(O)C(O)[C@@H]3O (some centres unmarked) [CTS amorphous anhydrate]
Reply: 0.49

New cases:
Task item: Requested field: Amount of Adsorbed Ethanol. Item: OCC1OC2OCC3O[C@H](O[C@H]4C(O)C(CO)OC(OCC5O[C@H](O[C@@H](C1O)C2O)C(O)C(O)[C@@H]5O)C4O)C(O)C(O)[C@@H]3O (some centres unmarked) [CTS crystalline anhydrate]
Reply: 0.50
